Tested on: HT-29
experiment: XTT cell growth inhibition, HT-29
Format: cell-based
assay.setup: Homo sapiens, HT-29; Colon Ca; XTT tetrazonium assay; read-out: IC50 (nM), HT-29
recorded.endpoint: IC50

// IC50 lookup, compound = C/C(=C\c1csc(C)n1)[C@@H]1C/C=C(/C(F)(F)F)C/C=C/[C@H](C)[C@H](O)[C@@H](C)C(=O)C(C)(C)[C@@H](O)CC(=O)O1 [Compound 29] , result: 4 nM

* * *

System: CCRF-CEM/Taxol
Assay type: cell-based, human
assay.setup: Homo sapiens, CCRF-CEM; XTT assay following 72 h inhibition; Table 1-3; read-out: IC50, C/Taxol
recorded.endpoint: pIC50
Worth noting: pIC50 values are minus log10 of concentrations stated in mol/L.

- smi: "C/C(=C\\c1csc(C)n1)[C@@H]1C/C=C(/C(F)(F)F)CCC[C@H](C)[C@H](O)[C@@H](C)C(=O)C(C)(C)[C@@H](O)CC(=O)O1"
  recorded.endpoint: "pIC50"
  test.result: 7.74
- smi: "C/C1=C/C[C@@H](/C(C)=C/c2csc(C)n2)OC(=O)C[C@H](O)C(C)(C)C(=O)[C@H](C)[C@@H](O)[C@@H](C)/C=C/C1"
  recorded.endpoint: "pIC50"
  test.result: 8.92

Note: attention shifts to another entry.
// pIC50 lookup, compound = `C/C(=C\c1csc(C)n1)[C@@H]1C/C=C(/C(F)(F)F)C/C=C/[C@H](C)[C@H](O)[C@@H](C)C(=O)C(C)(C)[C@@H](O)CC(=O)O1` , result: 8.24

Reference source for all entries: patent US7875638B2
